Experiment: In vitro stability in rat liver homogenate
Format: in vitro ADME
Details: tissue homogenate
Provide the recorded remaining at 4 h, 5 μM for the entries that follow.
Entry rule: numbers only, all in %.

Q: Retrieve remaining at 4 h, 5 μM measured for `CCCCCCCCCCCCC(=O)N[C@@H](CCC(=O)NCCOCCOCC(=O)NCCOCCOCC(=O)N[C@@H](CCC(N)=O)C(=O)N[C@@H](CCCNC(=N)N)C(=O)N1CCC[C@H]1C(=O)N(C)[C@@H](CCCNC(=N)N)C(=O)N[C@@](C)(CC(C)C)C(=O)N[C@@H](CO)C(=O)N[C@@H](Cc1c[nH]cn1)C(=O)N[C@@H](CCCCN)C(=O)NCC(=O)N1CCC[C@@]1(C)C(=O)N[C@@H](CCCC)C(=O)N1CCC[C@H]1C(=O)N[C@@H](Cc1ccc(Cl)cc1)C(=O)O)C(=O)O` and print it.
A: 4

Q: Retrieve remaining at 4 h, 5 μM measured for `CCCCCCCCCCCCC(=O)N[C@@H](CCC(=O)NCCOCCOCC(=O)NCCOCCOCC(=O)N[C@@H](CCC(N)=O)C(=O)N[C@@H](CCCCNC(=N)N)C(=O)N1CCC[C@H]1C(=O)N(C)[C@@H](CCCNC(=N)N)C(=O)N[C@@H](CC(C)C)C(=O)N[C@@H](CO)C(=O)N[C@@H](Cc1c[nH]cn1)C(=O)N[C@@H](CCCCN)C(=O)NCC(=O)N1CCC[C@H]1C(=O)N[C@@H](CCCC)C(=O)N1CCC[C@H]1C(=O)N[C@@H](Cc1ccc(Cl)cc1)C(=O)O)C(=O)O` and print it.
A: 0

###

Experiment: In vitro stability in rat liver homogenate
Type: in vitro ADME
Settings: tissue homogenate
Starred links: 1 amine or outer side, 2 acyl side, 3 side chain; linkers in the order of their positions; H or OH if unused. Non-standard residues stand in square brackets, D forms with d. Residues, ends and D or L forms follow the SMILES beside them. *: point of attachment. Oic = O=C(O)[C@@H]1C[C@@H]2CCCC[C@@H]2N1; Phe(4-Cl) = N[C@@H](Cc1ccc(Cl)cc1)C(=O)O; γGlu = O=C(O)[C@H](CCC(=O)[*:2])N[*:1]; NMeR = CN[C@@H](CCCNC(=N)N)C(=O)O; Tridecanoyl = CCCCCCCCCCCCC(=O)*; αMeL = CC(C)C[C@](C)(N)C(=O)O; Nle = CCCC[C@H](N)C(=O)O; AEEA = NCCOCCOCC(=O)O
Provide the recorded remaining at 4 h, 5 μM for the entries that follow.

Q: Retrieve remaining at 4 h, 5 μM measured for CCCCCCCCCCCCC(=O)N[C@@H](CCC(=O)NCCOCCOCC(=O)NCCOCCOCC(=O)N[C@@H](CCC(N)=O)C(=O)N(C)[C@@H](CCCNC(=N)N)C(=O)N[C@@](C)(CC(C)C)C(=O)N[C@@H](CO)C(=O)N[C@@H](Cc1c[nH]cn1)C(=O)N[C@@H](CCCCN)C(=O)NCC(=O)N1[C@H](C(=O)N[C@@H](CCCC)C(=O)N2CCC[C@H]2C(=O)N[C@@H](Cc2ccc(Cl)cc2)C(=O)O)C[C@@H]2CCCC[C@@H]21)C(=O)O [compound 397] ({Tridecanoyl-γGlu-AEEA-AEEA}-Q[NMeR][αMeL]SHKG[Oic][Nle]P[Phe(4-Cl)]-OH) and print it.
A: 2%

Q: Retrieve remaining at 4 h, 5 μM measured for CCCCCCCCCCCCC(=O)N[C@@H](CCC(=O)NCCOCCOCC(=O)NCCOCCOCC(=O)N[C@H](CCC(N)=O)C(=O)N[C@@H](CCCNC(=N)N)C(=O)N1CCCC1(C)C(=O)N[C@@H](CCCCNC(=N)N)C(=O)NC(CC(=O)N[C@@H](CO)C(=O)N[C@@H](Cc1c[nH]cn1)C(=O)N[C@@H](CCCCN)C(=O)NCC(=O)N1CCCC1(C)C(=O)N[C@@H](CCCC)C(=O)N1CCCC1(C)C(=O)N[C@@H](Cc1ccc(Cl)cc1)C(=O)O)C(C)C)C(=O)O (some centres unmarked) and print it.
A: 11%

Q: Retrieve remaining at 4 h, 5 μM measured for `CCCCCCCCCCCCC(=O)N[C@@H](CCC(=O)NCCOCCOCC(=O)NCCOCCOCC(=O)N[C@@H](CCC(N)=O)C(=O)N[C@@H](CCCCNC(=N)N)C(=O)N1CCC[C@H]1C(=O)N(C)[C@@H](CCCCNC(=N)N)C(=O)N[C@@H](CC(C)C)C(=O)N[C@@H](CO)C(=O)N[C@@H](Cc1c[nH]cn1)C(=O)N[C@@H](CCCCN)C(=O)NCC(=O)N1CCC[C@H]1C(=O)N[C@@H](CCCC)C(=O)N1CCC[C@H]1C(=O)N[C@@H](Cc1ccc(Cl)cc1)C(=O)O)C(=O)O` and print it.
A: < 1%

Q: Retrieve remaining at 4 h, 5 μM measured for `CCCCCCCCCCCCC(=O)N[C@@H](CCC(=O)NCCOCCOCC(=O)NCCOCCOCC(=O)N[C@@H](CCC(N)=O)C(=O)N[C@@H](CCCNC(=N)N)C(=O)N1CCC[C@H]1C(=O)N(C)[C@@H](CCCNC(=N)N)C(=O)N[C@@H](CC(C)C)C(=O)N[C@@H](CO)C(=O)N[C@H](CN[C@@H](CCCCN)C(=O)NCC(=O)N1CCC[C@H]1C(=O)N[C@@H](CCCC)C(=O)N1CCC[C@H]1C(=O)N[C@@H](Cc1ccc(Cl)cc1)C(=O)O)Cc1c[nH]cn1)C(=O)O` and print it.
A: < 1%

Q: Retrieve remaining at 4 h, 5 μM measured for `CSCC[C@H](NC(=O)[C@@H](N)CS)C(=O)N1CCC[C@H]1C(=O)N[C@@H](CC(C)C)C(=O)N[C@@H](Cc1cnc[nH]1)C(=O)N[C@@H](CO)C(=O)N[C@@H](CCCNC(=N)N)C(=O)N[C@H](C(=O)N1CCC[C@H]1C(=O)N[C@@H](Cc1ccccc1)C(=O)N1CCC[C@H]1C(=O)O)C(C)C` and print it.
A: < 1%
